- experiment: AUC (0.5 to 6 hrs) in C57BL/6 mouse serum at 9.14 umol/kg, ip by LC-MS/MS analysis
- Type: ADME, organism-based
- Parameters: time upper 6 hr, dose 9.14 umol/kg, time lower 0.5 hr, route intraperitoneal
- condition_notes: in vivo
// classify: if (AUC < 800 ng·h/g) MET else NOT MET

> print(dat)
                                   molecule      cat
1  CC(C)(Oc1ccc(CCNC(=O)c2ccc(Cl)cc2)cc1)C(=O)O [BEZAFIBRATE]      MET
2  CCO[C@@H](Cc1ccc(OCCc2ccc(OS(C)(=O)=O)cc2)cc1)C(=O)O [TESAGLITAZAR]  NOT MET
3  CCCc1c(OCCCSc2ccc(CC(=O)O)cc2Cl)ccc2c(C(F)(F)F)noc12  NOT MET
4  Cc1cc(SCc2sc(-c3ccc(C(F)(F)F)cc3)nc2C)ccc1OCC(=O)O [GW501516]  NOT MET
5  O=C(O)Cc1cccc(OCCCN(Cc2cccc(C(F)(F)F)c2Cl)CC(c2ccccc2)c2ccccc2)c1  NOT MET
6  CC1(C)CCSc2ccc(C#Cc3ccc(C(=O)O)cn3)cc21 [TAZAROTENIC ACID]      MET
7  CC/C(=C(\c1ccc(O)cc1)c1ccc(/C=C/C(=O)O)cc1)c1ccccc1      MET
8  Cc1cc(OCC(=O)O)cc(C)c1Cc1cc(C#Cc2ccc([N+](=O)[O-])cc2)c(O)c(C(C)C)c1      MET
9  O=C(O)Cc1cc(I)c(Oc2ccc(O)c(I)c2)c(I)c1 [TIRATRICOL]  NOT MET

----------
- condition_notes: mouse, in vivo, ip
Recorded measurements of AUC, one per entry
recorded_metric: AUC (ng·h/g)

> print(dat)
                                   molecule  measured.value
1  CCCc1c(OCCCSc2ccc(CC(=O)O)cc2Cl)ccc2c(C(F)(F)F)noc12           67.35
2  Cc1cc(SCc2sc(-c3ccc(C(F)(F)F)cc3)nc2C)ccc1OCC(=O)O            41.8
3  CC(C)(Oc1ccc(CCNC(=O)c2ccc(Cl)cc2)cc1)C(=O)O [BEZAFIBRATE]             5.5
4  CC/C(=C(\c1ccc(O)cc1)c1ccc(/C=C/C(=O)O)cc1)c1ccccc1           228.2
5  O=C(O)Cc1cccc(OCCCN(Cc2cccc(C(F)(F)F)c2Cl)CC(c2ccccc2)c2ccccc2)c1            1867
6  Cc1cc(OCC(=O)O)cc(C)c1Cc1cc(C#Cc2ccc([N+](=O)[O-])cc2)c(O)c(C(C)C)c1            11.9
7  CCO[C@@H](Cc1ccc(OCCc2ccc(OS(C)(=O)=O)cc2)cc1)C(=O)O             7.3
8   CC1(C)CCSc2ccc(C#Cc3ccc(C(=O)O)cn3)cc21            38.5

----------
- experiment: in vivo
- condition_notes: C57BL/6, mouse, brain/serum, ip, 9.14 umol/kg
recorded_metric: Kp

> print(dat)
                                   molecule  measured.value
1  Cc1cc(SCc2sc(-c3ccc(C(F)(F)F)cc3)nc2C)ccc1OCC(=O)O           0.018
2  CC/C(=C(\c1ccc(O)cc1)c1ccc(/C=C/C(=O)O)cc1)c1ccccc1            1.35
3  O=C(O)Cc1cccc(OCCCN(Cc2cccc(C(F)(F)F)c2Cl)CC(c2ccccc2)c2ccccc2)c1            0.21
4  CCCc1c(OCCCSc2ccc(CC(=O)O)cc2Cl)ccc2c(C(F)(F)F)noc12            0.03
5   CC1(C)CCSc2ccc(C#Cc3ccc(C(=O)O)cn3)cc21            0.12
6  CC(C)(Oc1ccc(CCNC(=O)c2ccc(Cl)cc2)cc1)C(=O)O [BEZAFIBRATE]           0.013
7  Cc1cc(OCC(=O)O)cc(C)c1Cc1cc(C#Cc2ccc([N+](=O)[O-])cc2)c(O)c(C(C)C)c1           0.016
8  CCO[C@@H](Cc1ccc(OCCc2ccc(OS(C)(=O)=O)cc2)cc1)C(=O)O           0.004
